Study system: UniProt P19793
Sequence (P19793 whole entry): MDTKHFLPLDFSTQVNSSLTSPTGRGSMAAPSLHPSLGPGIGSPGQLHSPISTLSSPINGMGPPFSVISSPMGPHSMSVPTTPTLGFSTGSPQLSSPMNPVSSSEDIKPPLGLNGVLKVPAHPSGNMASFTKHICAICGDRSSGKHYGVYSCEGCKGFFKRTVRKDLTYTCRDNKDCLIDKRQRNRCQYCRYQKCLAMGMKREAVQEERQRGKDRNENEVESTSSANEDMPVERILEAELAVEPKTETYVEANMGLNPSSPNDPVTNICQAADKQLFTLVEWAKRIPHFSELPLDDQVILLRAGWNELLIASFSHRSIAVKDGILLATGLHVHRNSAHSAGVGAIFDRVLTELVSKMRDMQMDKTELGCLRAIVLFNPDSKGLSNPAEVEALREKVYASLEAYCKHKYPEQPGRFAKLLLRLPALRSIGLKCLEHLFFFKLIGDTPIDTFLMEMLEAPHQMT
Test name: holoreceptor transactivation assay
pEC50: −log10 of the molar value.
The following ranges of pEC50 define the classes used here: Low (below 8), Mid (8 to below 9), High (9 or more)

Query string: Which class is correct for the following compound? CCN(c1ccc(C(=O)O)cc1)c1cc2c(cc1C)C(C)(C)CC=C2C(C)(C)C [Compound 26]
Result string: High

Query string: Which class is correct for the following compound? CCN(c1ccc(C(=O)O)cc1)c1cc2c(cc1OC)C(C)(C)CC=C2C(C)C [Compound 148]
Result string: High

Query string: Which class is correct for the following compound? CCN(c1ccc(C(=O)O)cc1)c1cc2c(cc1C)C(C)(C)CC=C2C [Compound 23]
Result string: Low

Query string: Which class is correct for the following compound? CCN(c1ccc(C(=O)O)cc1)c1cc2c(cc1C)C(C)(C)CC=C2C(C)C [Compound 25]
Result string: High

Query string: Which class is correct for the following compound? CCC1=CCC(C)(C)c2cc(N(CC)c3ccc(C(=O)O)cc3)ccc21 [Compound 75]
Result string: Low

Query string: Which class is correct for the following compound? CCN(c1ccc(C(=O)O)cc1)c1ccc2c(c1)C(C(C)(C)C)=CCC2(C)C [Compound 88]
Result string: Mid

Query string: Which class is correct for the following compound? CCN(c1ccc2c(c1)C(C(C)C)=CCC2(C)C)c1ccc(C(=O)O)cn1 [Compound 172]
Result string: Mid

Query string: Which class is correct for the following compound? CCN(c1ccc(C(=O)O)cc1)c1cc2c(cc1C)C(C(C)(C)C)=CCC2(C)C [Compound 60]
Result string: Low
